Measured hERG current change (%, negative = inhibition) at 10uM, listed per entry.
TEST_SYSTEM: human ether-à-go-go-related gene (hERG) potassium channel (human);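 note: peak tail current of the secondary pulse compared with the same well before compound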
Sequence (Q12809 whole entry, looked up): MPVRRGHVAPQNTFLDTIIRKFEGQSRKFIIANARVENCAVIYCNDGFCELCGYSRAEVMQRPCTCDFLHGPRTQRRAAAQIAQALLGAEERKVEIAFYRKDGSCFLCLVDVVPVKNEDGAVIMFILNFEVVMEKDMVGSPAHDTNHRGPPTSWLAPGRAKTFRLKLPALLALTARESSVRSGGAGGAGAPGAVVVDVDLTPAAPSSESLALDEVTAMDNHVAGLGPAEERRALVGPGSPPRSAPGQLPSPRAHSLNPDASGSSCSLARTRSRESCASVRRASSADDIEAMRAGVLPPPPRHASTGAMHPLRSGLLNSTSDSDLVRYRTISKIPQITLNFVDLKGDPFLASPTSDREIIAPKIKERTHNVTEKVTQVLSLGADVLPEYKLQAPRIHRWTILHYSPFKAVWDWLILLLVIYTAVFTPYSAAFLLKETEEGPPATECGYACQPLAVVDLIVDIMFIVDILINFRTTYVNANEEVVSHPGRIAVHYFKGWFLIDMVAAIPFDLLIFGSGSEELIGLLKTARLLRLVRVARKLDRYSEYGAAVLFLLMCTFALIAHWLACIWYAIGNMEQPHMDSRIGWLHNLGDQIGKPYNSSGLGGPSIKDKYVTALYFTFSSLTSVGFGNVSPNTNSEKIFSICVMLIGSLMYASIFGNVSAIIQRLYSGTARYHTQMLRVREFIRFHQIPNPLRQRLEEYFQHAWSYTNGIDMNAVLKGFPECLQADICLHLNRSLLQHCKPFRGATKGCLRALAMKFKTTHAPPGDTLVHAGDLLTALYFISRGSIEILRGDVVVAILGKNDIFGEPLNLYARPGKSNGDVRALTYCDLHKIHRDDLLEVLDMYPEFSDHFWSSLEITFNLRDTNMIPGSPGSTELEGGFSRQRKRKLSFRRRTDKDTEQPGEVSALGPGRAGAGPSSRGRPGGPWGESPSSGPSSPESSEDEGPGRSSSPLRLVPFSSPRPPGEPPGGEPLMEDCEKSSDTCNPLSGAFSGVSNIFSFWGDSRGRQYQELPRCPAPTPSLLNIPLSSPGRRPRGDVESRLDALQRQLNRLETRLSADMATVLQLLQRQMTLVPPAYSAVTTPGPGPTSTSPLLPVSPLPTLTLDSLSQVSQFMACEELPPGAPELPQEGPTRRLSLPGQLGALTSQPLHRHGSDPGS
ASSAY: primary screen, population patch clamp on CHO cells stably expressing hERG; higher = less effect of the substance
The campaign covered roughly 310,000 compounds. About 14,000 (4.5%) showed an effect of 50% or more. The effect is printed as a negative number. For the sample, strong results were picked, then their nearest neighbours and some compounds at random.
Please give the number followed by its unit.

{"COMPOUND": "COc1cc(OC)cc(-c2nnc(SCc3cccc(C(=O)O)c3)o2)c1", "MEASURED": "8.29%"}
{"COMPOUND": "O=C(CN(Cc1ccc2c(c1)OCO2)C(=O)CNS(=O)(=O)c1ccccc1)NCc1ccco1", "MEASURED": "-22%"}

Then this compound:
Recorded hERG current change (%, negative = inhibition) at 10uM (compound CCCOP(=O)(c1ccc(N(C)C)cc1)C(O)c1ccc(N(C)C)cc1 (stereo not drawn) ): 12.8%

Source of measurements: paper PMC4336329
